# Tested on: ZR-75-1
# test.description: relative IC50 (midpoint of fitted logistic curve, plateau may be below 50% inhibition; CellTiter-Glo viability); higher = less potent
# test.settings: 4-OH-tamoxifen in medium 0 µM; 72 h
quantity.kind: relative IC50

Completed entries (count: 7):
• CC1=C(/C=C/C(C)=C/C=C/C(C)=C/C(=O)O)C(C)(C)CCC1 = > 10 µM
• COc1ccc(C2=N[C@@H](c3ccc(Cl)cc3)[C@@H](c3ccc(Cl)cc3)N2C(=O)N2CCNC(=O)C2)c(OC(C)C)c1 = 2.79 µM
• C#Cc1cccc(Nc2ncnc3cc(OCCOC)c(OCCOC)cc23)c1 = > 10 µM
• S=P(N1CC1)(N1CC1)N1CC1 = > 100 µM
• CNC(=O)c1ccc(N2C(=S)N(c3ccc(C#N)c(C(F)(F)F)c3)C(=O)C23CCC3)cc1F = > 10 µM
• Oc1ncnc2[nH]ncc12 = > 10 µM
• CN(C)CCN1C(=O)c2cccc3cc(N)cc(c23)C1=O [Amonafide] = 3.51 µM

Then this compound:
INPUT: State relative IC50 on ZR-75-1. Entry: C[C@]12CC[C@@H]3c4ccc(O)cc4C[C@@H](CCCCCCCCC[S+]([O-])CCCC(F)(F)C(F)(F)F)[C@H]3[C@@H]1CC[C@@H]2O (stereo partly drawn)
OUTPUT: > 1 µM

---

Exercise: for every item that follows, state its recorded relative IC50.
# System: T-47D
# test.description: relative IC50 (midpoint of fitted logistic curve, plateau may be below 50% inhibition; CellTiter-Glo viability); higher = less potent
# test.settings: 4-OH-tamoxifen in medium 0 µM; 72 h
Numbers only, in µM.

Consider the reported relative IC50 for these compounds:
- CCCCCCCCc1ccc(CCC(N)(CO)CO)cc1 [Fingolimod]: 4.09
- Cc1c2oc3c(C)ccc(C(=O)N[C@@H]4C(=O)N[C@H](C(C)C)C(=O)N5CCC[C@H]5C(=O)N(C)CC(=O)N(C)[C@@H](C(C)C)C(=O)O[C@@H]4C)c3nc-2c(C(=O)N[C@@H]2C(=O)N[C@H](C(C)C)C(=O)N3CCC[C@H]3C(=O)N(C)CC(=O)N(C)[C@@H](C(C)C)C(=O)O[C@@H]2C)c(N)c1=O [Dactinomycin]: 0.00779
- CS(=O)(=O)N1CCN(Cc2cc3nc(-c4cccc5[nH]ncc45)nc(N4CCOCC4)c3s2)CC1 [Pictilisib (GDC-0941)]: 0.713
- COC1=C2C[C@@H](C)C[C@H](OC)[C@H](O)[C@@H](C)/C=C(\C)[C@H](OC(N)=O)[C@@H](OC)/C=C\C=C(/C)C(=O)NC(=CC1=O)C2=O [Geldanamycin]: 2.95
- COc1cc(Nc2c(C#N)cnc3cc(OCCCN4CCN(C)CC4)c(OC)cc23)c(Cl)cc1Cl [Bosutinib]: 2.48

Quick one: give me relative IC50 for each item below, same order please.
1. CO[C@H]1/C=C\C=C(/C)C(=O)NC2=CC(=O)C(NCCN(C)C)=C(C[C@@H](C)C[C@H](OC)[C@H](O)[C@@H](C)/C=C(\C)[C@@H]1OC(N)=O)C2=O [Alvespimycin (17-DMAG)]
2. COc1cc(Nc2ncc(F)c(Nc3ccc4c(n3)N(COP(=O)(O)O)C(=O)C(C)(C)O4)n2)cc(OC)c1OC
3. Nc1ccccc1NC(=O)c1ccc(CNC(=O)OCc2cccnc2)cc1 [Entinostat]
4. CCc1c2c(nc3ccc(OC(=O)N4CCC(N5CCCCC5)CC4)cc13)-c1cc3c(c(=O)n1C2)COC(=O)[C@]3(O)CC [Irinotecan]
5. COc1cccc2cc(-c3nc([C@H]4CC[C@H](C(=O)O)CC4)n4ncnc(N)c34)[nH]c12 [OSI-027]

OUTPUT:
[0.259, 2.34, 3.89, 1.24, 0.246]

---

# Test system: MCF-7 Tam1
# test.description: drug sensitivity score (DSS) (DSS (dimensionless)); higher = more sensitive; extreme values may be limits of the assay
# test.settings: 4-OH-tamoxifen in medium 1 µM; 72 h
Counter-ions that a name gives are not always drawn.
quantity.kind: drug sensitivity score
Answers are plain numbers.

• COc1ccc(-c2ccc3c(N4CCOC[C@@H]4C)nc(N4CCOC[C@@H]4C)nc3n2)cc1CO [AZD8055] = 6.06
• Cn1cc(CNCC2CCN(c3ncc(C(=O)NO)cn3)CC2)c2ccccc21 = 1.39
• CS(=O)(=O)c1ccc(C(=O)Nc2ccc(Cl)c(-c3ccccn3)c2)c(Cl)c1 [Vismodegib] = 0
• c1ccc([C@H]2CN3CCSC3=N2)cc1 [Levamisole, (Tetramisole hydrochloride)] = 0
• Cc1c2oc3c(C)ccc(C(=O)N[C@@H]4C(=O)N[C@H](C(C)C)C(=O)N5CCC[C@H]5C(=O)N(C)CC(=O)N(C)[C@@H](C(C)C)C(=O)O[C@@H]4C)c3nc-2c(C(=O)N[C@@H]2C(=O)N[C@H](C(C)C)C(=O)N3CCC[C@H]3C(=O)N(C)CC(=O)N(C)[C@@H](C(C)C)C(=O)O[C@@H]2C)c(N)c1=O [Dactinomycin] = 16.1
• CC(C)(C#N)c1cc(Cn2cncn2)cc(C(C)(C)C#N)c1 [Anastrozole] = 0

Items follow; give drug sensitivity score for each.
1. CO[C@H]1/C=C\C=C(/C)C(=O)NC2=CC(=O)C(NCCN(C)C)=C(C[C@@H](C)C[C@H](OC)[C@H](O)[C@@H](C)/C=C(\C)[C@@H]1OC(N)=O)C2=O [Alvespimycin (17-DMAG)]
2. CCCCCOC(=O)Nc1nc(=O)n([C@@H]2O[C@H](C)[C@@H](O)[C@H]2O)cc1F [Capecitabine]
3. C[C@]12CC[C@@H]3c4ccc(OC(=O)N(CCCl)CCCl)cc4CC[C@H]3[C@@H]1CC[C@@H]2O [Estramustine]
4. C[C@@H]1C=C2C(=O)O[C@@H]3CC[C@H](C1)[C@]23O [Galiellalactone]
5. CC[C@]1(O)C[C@@H]2CN(CCc3c([nH]c4ccccc34)[C@@](C(=O)OC)(c3cc4c(cc3OC)N(C)[C@H]3[C@@](O)(C(=O)OC)[C@H](OC(C)=O)[C@]5(CC)C=CCN6CC[C@]43[C@@H]65)C2)C1 [Vinblastine]

OUTPUT:
1. 4.36
2. 0
3. 0
4. 0
5. 0.0008

---

# System: BT-474 Tam1
# test.description: viability inhibition at highest dose (% inhibition); higher = more growth inhibition
# test.settings: 4-OH-tamoxifen in medium 1 µM; 72 h
quantity.kind: viability inhibition at highest dose

Some compounds with recorded viability inhibition at highest dose:
- N[C@@H](CSC(c1ccccc1)(c1ccccc1)c1ccccc1)C(=O)O [S-trityl-L-cysteine] (drug 40000 nM): 23.3
- O=C(/C=C/c1cccc(S(=O)(=O)Nc2ccccc2)c1)NO [Belinostat (PXD101)] (drug 10000 nM): 89
- Cc1c(N)nc([C@H](CC(N)=O)NC[C@H](N)C(N)=O)nc1C(=O)N[C@H](C(=O)N[C@H](C)[C@@H](O)[C@H](C)C(=O)N[C@H](C(=O)NCCc1nc(-c2nc(C(=O)NCCC[S+](C)C)cs2)cs1)[C@@H](C)O)[C@@H](OC1OC(CO)C(O)C(O)C1OC1OC(CO)C(O)C(OC(N)=O)C1O)c1cnc[nH]1 (some centres undefined) [Bleomycin] (drug 10000 nM): -4.38

Continue with the compound presented below.
INPUT: // Input: COC1=C2C[C@@H](C)C[C@H](OC)[C@H](O)[C@@H](C)/C=C(\C)[C@H](OC(N)=O)[C@@H](OC)/C=C\C=C(/C)C(=O)NC(=CC1=O)C2=O [Geldanamycin] (drug 10000 nM) . Output its viability inhibition at highest dose only.
OUTPUT: 83.6

---

# Test system: T-47D
# test.description: relative IC50 (midpoint of fitted logistic curve, plateau may be below 50% inhibition; CellTiter-Glo viability); higher = less potent
# test.settings: 4-OH-tamoxifen in medium 1 µM; 72 h
Give measured relative IC50 for each item. Keep answers brief.

Below, each entry is followed by its recorded relative IC50 result.
- CN(N=O)C(=O)N[C@@H](C=O)[C@@H](O)[C@H](O)[C@H](O)CO [Streptozocin]: > 10 µM
- CN1CC[C@H](c2c(O)cc(O)c3c(=O)cc(-c4ccccc4Cl)oc23)[C@H](O)C1 [Alvocidib (Flavopiridol)]: > 10 µM
- Clc1ccc(C(c2ccccc2Cl)C(Cl)Cl)cc1 (centres undefined) [Mitotane]: > 10 µM

Now look at this one.
INPUT: Let me know recorded relative IC50 for CN(C)C/C=C/C(=O)Nc1cc2c(Nc3ccc(F)c(Cl)c3)ncnc2cc1O[C@H]1CCOC1 [Afatinib (BIBW2992, Tovok)] , thanks.
OUTPUT: > 1 µM

---

# Tested on: BT-474 Tam1
# test.description: viability inhibition at highest dose (% inhibition); higher = more growth inhibition
# test.settings: 4-OH-tamoxifen in medium 1 µM; 72 h
quantity.kind: viability inhibition at highest dose
Answers are plain numbers.

Example cases with answers are listed next.
- COC(=O)C[C@](O)(CCCC(C)(C)O)C(=O)O[C@@H]1C(OC)=C[C@]23CCCN2CCc2cc4c(cc2[C@H]13)OCO4 [Omacetaxine (Homoharringtonine)] (drug 10000 nM): 82.1
- Cc1ccc(C(=O)Nc2ccc(CN3CCN(C)CC3)c(C(F)(F)F)c2)cc1C#Cc1cnc2cccnn12 (drug 1000 nM): 35.9
- CS(=O)(=O)CCNCc1ccc(-c2ccc3ncnc(Nc4ccc(OCc5cccc(F)c5)c(Cl)c4)c3c2)o1 [Lapatinib] (drug 1000 nM): 96.8
- O=C(Cc1ccc(-c2ccc(OCCN3CCOCC3)cc2)cn1)NCc1ccccc1 [KX2-391] (drug 10000 nM): 92.7
- CC(C)C(=O)Nc1ccc([N+](=O)[O-])c(C(F)(F)F)c1 [Flutamide] (drug 10000 nM): 6.08

Shift focus to the following entry.
INPUT: Give recorded viability inhibition at highest dose. CO[C@H]1/C=C\C=C(/C)C(=O)NC2=CC(=O)C(NCCN(C)C)=C(C[C@@H](C)C[C@H](OC)[C@H](O)[C@@H](C)/C=C(\C)[C@@H]1OC(N)=O)C2=O [Alvespimycin (17-DMAG)] (drug 1000 nM)
OUTPUT: 78.3
